All values here come from the supplement of paper PMC6607015.

- Test system: A431
- test_description: LBPA endosome anti-LBPA integrated intensity (sum per cell), Z-score; higher = more LBPA staining
- experimental_setup: compound concentration in added solution (µM; 5 µl added to 20 µl cells): 10; 18 h
Where a name gives a salt, the structure may show the parent alone.
Tick class 1 if LBPA endosome anti-LBPA integrated intensity (z-score) is -0.4 or greater. Tick class 0 if LBPA endosome anti-LBPA integrated intensity (z-score) is less than -0.4.

Input: Please tell me: is the compound C#CCN(C)CCCOc1ccc(Cl)cc1Cl [Clorgyline hydrochloride] at or over -0.4 in terms of LBPA endosome anti-LBPA integrated intensity (z-score)?
Output: class 1

Input: Determine whether measured LBPA endosome anti-LBPA integrated intensity (z-score) meets or exceeds -0.4 for CCN(CCCc1ccccc1)CCCc1ccccc1 [Alverine citrate salt]
Output: class 1

Input: Decide: is the reported value of LBPA endosome anti-LBPA integrated intensity (z-score) for CCn1cc(C(=O)O)c(=O)c2ccc(C)nc21 [Nalidixic acid sodium salt] equal to or greater than -0.4?
Output: class 0

Input: Does the reported LBPA endosome anti-LBPA integrated intensity (z-score) for Nc1nc2ccc(OC(F)(F)F)cc2s1 [Riluzole hydrochloride] fall at or above the -0.4 mark?
Output: class 0

Input: Can Cc1c(OCC(F)(F)F)ccnc1C[S+]([O-])c1nc2ccccc2[nH]1 (configuration not stated) be said to have LBPA endosome anti-LBPA integrated intensity (z-score) at or above -0.4?
Output: class 0

Input: hey, is LBPA endosome anti-LBPA integrated intensity (z-score) for this one >= -0.4? COc1cc(N)c(Cl)cc1C(=O)NC1CCN(Cc2ccccc2)CC1 [Clebopride maleate]
Output: class 1

Input: Entry `C#Cc1cccc(Nc2ncnc3cc(OCCOC)c(OCCOC)cc23)c1` : is its LBPA endosome anti-LBPA integrated intensity (z-score) no less than -0.4?
Output: class 1

Input: Does CC(=O)O[C@]1(C(C)=O)CC[C@H]2[C@@H]3C=C(C)C4=CC(=O)CC[C@]4(C)[C@H]3CC[C@@]21C [Megestrol acetate] have a reported LBPA endosome anti-LBPA integrated intensity (z-score) of at least -0.4?
Output: class 0

Input: Does LBPA endosome anti-LBPA integrated intensity (z-score) meet or surpass -0.4 for CCC[C@@H]1C[C@@H](C(=O)N[C@@H]([C@H]2O[C@H](SC)[C@H](O)[C@@H](O)[C@H]2O)[C@H](C)Cl)N(C)C1 [Clindamycin hydrochloride] ?
Output: class 0

Input: Is the recorded value of LBPA endosome anti-LBPA integrated intensity (z-score) equal to or greater than -0.4 for this compound? `O=C(O)c1ccccc1OP(=O)(O)O`
Output: class 1

Input: Is LBPA endosome anti-LBPA integrated intensity (z-score) at least -0.4? Consider C#C[C@]1(OC(C)=O)CC[C@H]2[C@@H]3CCC4=C[C@@H](OC(C)=O)CC[C@@H]4[C@H]3CC[C@@]21C [Ethynodiol diacetate]
Output: class 1

Input: # bool: LBPA endosome anti-LBPA integrated intensity (z-score) of `C[C@]12CCC(=O)C=C1C=C[C@@H]1[C@@H]2CC[C@@]2(C)[C@H]1CC[C@@]21CCC(=O)O1` >= -0.4
Output: class 1

Input: Identify whether the reported LBPA endosome anti-LBPA integrated intensity (z-score) of the following compound is -0.4 or greater: `Cc1c(N(C)C)c(=O)n(-c2ccccc2)n1C`
Output: class 0

Input: Entry CC(C)(O/N=C(\C(=O)N[C@@H]1C(=O)N2C(C(=O)[O-])=C(C[n+]3ccccc3)CS[C@H]12)c1csc(N)n1)C(=O)O [Ceftazidime pentahydrate] : is its LBPA endosome anti-LBPA integrated intensity (z-score) no less than -0.4?
Output: class 0

Input: Hello, I need to know if `O=C1NCCN1c1ncc([N+](=O)[O-])s1` has measured LBPA endosome anti-LBPA integrated intensity (z-score) not below -0.4. Thanks!
Output: class 0

Input: Is the recorded value of LBPA endosome anti-LBPA integrated intensity (z-score) equal to or greater than -0.4 for this compound? COc1cc2nc(N3CCN(C(=O)c4ccco4)CC3)nc(N)c2cc1OC [Prazosin hydrochloride]
Output: class 1

Input: Quick check: does COc1cc2nc(N(C)CCCNC(=O)C3CCCO3)nc(N)c2cc1OC (configuration not stated) [Alfuzosin hydrochloride] have LBPA endosome anti-LBPA integrated intensity (z-score) greater than or equal to -0.4?
Output: class 1
